These data points were gathered from ChEMBL document CHEMBL1914320.

Tested on: Moraxella catarrhalis
runDescription: Antibacterial activity against beta-lactamase producing Moraxella catarrhalis isolate 5 at 500 ug/ml after overnight incubation by disc diffusion assay
Assay type: functional, organism-based
The source made the active and inactive calls. No cut-off for these calls is given here.
Outcome (select one): active, inactive

compound: O=C1CC(SCCO)N1 (racemic)
labelValue: inactive

Record lookup: outcome of this test for O=C1CC(Sc2cccs2)N1S(=O)(=O)O (racemic) ? active

Record lookup: outcome of this test for CCOC(=O)CN1C(=O)C(OC)C1C(CC)(CC)SSC(C=O)(CC)CC (racemic) ? active

Record lookup: outcome of this test for CCOC(=O)CN1C(=O)C(OC)C1C(S)(CC)CC (racemic) ? inactive

====

Tested on: Moraxella catarrhalis
runDescription: Antibacterial activity against beta-lactamase producing Moraxella catarrhalis isolate 2 after 48 hrs incubation by microdilution broth method
Format: functional
testContext: isolate 2, 48 h
measurementLabel: MBC

Report MBC for each item below.
1. O=C1CC(Sc2ccc(O)cc2)N1 (racemic)
2. CCC(C=O)(CC)SSC(CC)(CC)C1C(OC)C(=O)N1CC(=O)OC (racemic)
3. O=C1CC(Sc2ccc(O)cc2)N1S(=O)(=O)O (racemic)
4. O=C1CC(Sc2cccs2)N1 (racemic)
5. O=C1CC(Sc2ccc(S)cc2)N1 (racemic)

< 15.6 µg/mL
> 500 µg/mL
< 15.6 µg/mL
> 500 µg/mL
125 µg/mL

====

System: Moraxella catarrhalis
runDescription: Antibacterial activity against beta-lactamase producing Moraxella catarrhalis isolate 2 at 10 ug/disc after overnight incubation by disc diffusion assay
Format: functional
testContext: read-out: IZ
measurementLabel: zone of inhibition at 10 µg/disc (mm)
Numbers only, in mm.

Sample records with zone of inhibition at 10 µg/disc:
compound: CC(=O)SC1CC(=O)N1S(=O)(=O)O (racemic)
zone of inhibition at 10 µg/disc / mm: 12
--
compound: CC(=O)SC1CC(=O)N1 (racemic)
zone of inhibition at 10 µg/disc / mm: 20
--
compound: O=C1CC(Sc2ccc(O)cc2)N1S(=O)(=O)O (racemic)
zone of inhibition at 10 µg/disc / mm: 9

Report zone of inhibition at 10 µg/disc for each item below.
1. CCC(C=O)(CC)SSC(CC)(CC)C1C(OC)C(=O)N1CC(=O)OC (racemic)
2. CCC(S)(CC)CO
3. O=C1CC(Sc2ccc(S)cc2)N1 (racemic)
4. CCOC(=O)C/N=C\C(S)(CC)CC
5. CCC(C=O)(CC)SSC(C=O)(CC)CC

[10, 3, 8, 2, 10]

====

Test system: Staphylococcus aureus
runDescription: Antibacterial activity against non-beta-lactamase producing Staphylococcus aureus ATCC 25923 after 48 hrs by microdilution broth method
Format: functional, organism-based
Calls of active or inactive are those of the source. The rule behind the calls is not given here.
measurementLabel: Activity

Sample records with Activity:
molecule: CCC(C=O)(CC)SSC(CC)(CC)C1C(OC)C(=O)N1CC(=O)OC (racemic)
result: inactive

molecule: O=C1CC(SCCO)N1 (racemic)
result: inactive

molecule: CCOC(=O)CN1C(=O)C(OC)C1C(CC)(CC)SSC(C=O)(CC)CC (racemic)
result: inactive

molecule: CCC(C=O)(CC)SSC(/C=N\CC(=O)OC)(CC)CC
result: inactive

molecule: CC(=O)SC1CC(=O)N1S(=O)(=O)O (racemic)
result: inactive

molecule: O=C1CC(Sc2ccc(O)cc2)N1 (racemic)
result: inactive

molecule: CCOC(=O)C/N=C\C(CC)(CC)SSC(C=O)(CC)CC
result: inactive

molecule: CCOC(=O)CN1C(=O)C(OC)C1C(C)(C)SSC (racemic)
result: inactive

molecule: O=C1CC(Sc2ccc(O)cc2)N1S(=O)(=O)O (racemic)
result: inactive

molecule: CCOC(=O)CN1C(=O)C(OC)C1C(S)(CC)CC (racemic)
result: inactive

The record that follows has no Activity shown yet.
Returns the measured Activity for the input molecule. Input: CCC(C=O)(CC)SSC(C=O)(CC)CC inactive

====

Tested on: Moraxella catarrhalis
runDescription: Antibacterial activity against beta-lactamase producing Moraxella catarrhalis isolate 1 at 10 ug/disc after overnight incubation by disc diffusion assay
Type: functional
testContext: read-out: IZ
Exercise: for every item that follows, state its recorded zone of inhibition at 10 µg/disc.
Give bare numbers, in mm.

Sample records with zone of inhibition at 10 µg/disc:
molecule: CCC(C=O)(CC)SSC(C=O)(CC)CC
unitString: mm
measuredNumber: 10
//
molecule: CCOC(=O)CN1C(=O)C(OC)C1C(CC)(CC)SSC(C=O)(CC)CC (racemic)
unitString: mm
measuredNumber: 20

Report zone of inhibition at 10 µg/disc for each item below.
1. O=C1CC(Sc2ccc(O)cc2)N1S(=O)(=O)O (racemic)
2. CC(=O)SC1CC(=O)N1 (racemic)
3. CCC(S)(CC)CO

[13, 19, 5]

====

runDescription: Chemical stability of the compound assessed as compound degradation after 48 hrs by NMR analysis
Format: physicochemical
testContext: read-out: Drug metabolism
measurementLabel: degraded at 48 h (%)
Answers are plain numbers, in %.

smi: CCOC(=O)C/N=C\C(CC)(CC)SSC(/C=N/CC(=O)OCC)(CC)CC
measurementLabel: degraded at 48 h
measuredNumber: 10

Report degraded at 48 h for each item below.
1. CCOC(=O)C/N=C\C(CC)(CC)SSC(C=O)(CC)CC
2. CCC(C=O)(CC)SSC(/C=N\CC(=O)OC)(CC)CC

[10, 10]

====

Test system: Mycobacterium tuberculosis
runDescription: Antimycobacterial activity against wild type Mycobacterium tuberculosis H37Rv at 200 ug/ml by Alamar blue assay
Assay type: functional, organism-based
Active and inactive are the calls of the source. No cut-off for these calls is given here.
Outcome (select one): 1.0 = active, 0.0 = inactive

Record excerpt, results attached:
compound: O=C1CC(Sc2ccc(S)cc2)N1S(=O)(=O)O (racemic)
labelValue: 1.0

compound: CCOC(=O)CN1C(=O)C(OC)C1C(CC)(CC)SSC(C=O)(CC)CC (racemic)
labelValue: 1.0

compound: Nc1ccc(SC2CC(=O)N2)cc1 (racemic)
labelValue: 1.0

compound: CCOC(=O)CN1C(=O)C(OC)C1C(S)(CC)CC (racemic)
labelValue: 0.0

compound: O=C1CC(SCCO)N1 (racemic)
labelValue: 0.0

compound: CCOC(=O)CN1C(=O)C(OC)C1C(C)(C)SSC (racemic)
labelValue: 1.0

compound: O=C1CC(Sc2cccs2)N1S(=O)(=O)O (racemic)
labelValue: 1.0

compound: O=C1CC(Sc2ccccc2)N1 (racemic)
labelValue: 0.0

Record lookup: outcome of this test for Nc1ccc(SC2CC(=O)N2S(=O)(=O)O)cc1 (racemic) ? 1.0

Record lookup: outcome of this test for O=C1CC(SCCCO)N1 (racemic) ? 0.0

====

Test system: Moraxella catarrhalis
runDescription: Antibacterial activity against beta-lactamase producing Moraxella catarrhalis isolate 4 after 48 hrs incubation by microdilution broth method
Assay type: functional
testContext: isolate 4, 48 h
measurementLabel: MBC

molecule: O=C1CC(Sc2ccc(O)cc2)N1S(=O)(=O)O (racemic)
MBC: < 15.6 µg/mL
//
molecule: O=C1CC(Sc2cccs2)N1 (racemic)
MBC: 500 µg/mL
//
molecule: O=C1CC(Sc2ccc(O)cc2)N1 (racemic)
MBC: < 15.6 µg/mL

Report MBC for each item below.
1. O=C1CC(Sc2ccc(S)cc2)N1 (racemic)
2. CCC(C=O)(CC)SSC(CC)(CC)C1C(OC)C(=O)N1CC(=O)OC (racemic)

500 µg/mL
< 15.6 µg/mL

====

Test system: Moraxella catarrhalis
runDescription: Antibacterial activity against beta-lactamase producing Moraxella catarrhalis isolate 6 at 500 ug/ml after overnight incubation by disc diffusion assay
Assay type: functional, organism-based
The source made the active and inactive calls. No cut-off for these calls is given here.
Outcome (select one): t = active, f = inactive

Record excerpt, results attached:
compound: Nc1ccc(SC2CC(=O)N2S(=O)(=O)O)cc1 (racemic)
assaySystem: Moraxella catarrhalis
labelValue: t

compound: CCOC(=O)CN1C(=O)C(OC)C1C(CC)(CC)SSC(C=O)(CC)CC (racemic)
assaySystem: Moraxella catarrhalis
labelValue: t

compound: O=C1CC(Sc2ccccc2)N1 (racemic)
assaySystem: Moraxella catarrhalis
labelValue: f

compound: O=C1CC(Sc2cccs2)N1S(=O)(=O)O (racemic)
assaySystem: Moraxella catarrhalis
labelValue: t

compound: O=C1CC(SCCO)N1 (racemic)
assaySystem: Moraxella catarrhalis
labelValue: f

Record lookup: outcome of this test for Nc1ccc(SC2CC(=O)N2)cc1 (racemic) ? t

====

Test system: Moraxella catarrhalis
runDescription: Antibacterial activity against beta-lactamase producing Moraxella catarrhalis isolate 3 after 48 hrs incubation by microdilution broth method
Format: functional
testContext: isolate 3, 48 h
measurementLabel: MBC

Sample records with MBC:
molecule: CCC(C=O)(CC)SSC(CC)(CC)C1C(OC)C(=O)N1CC(=O)OC (racemic)
result: < 15.6 µg/mL

molecule: O=C1CC(Sc2cccs2)N1 (racemic)
result: 500 µg/mL

molecule: O=C1CC(Sc2ccc(O)cc2)N1 (racemic)
result: < 15.6 µg/mL

molecule: O=C1CC(Sc2ccc(O)cc2)N1S(=O)(=O)O (racemic)
result: < 15.6 µg/mL

The record that follows has no MBC shown yet.
Returns the measured MBC for the input molecule. Input: O=C1CC(Sc2ccc(S)cc2)N1 (racemic) 125 µg/mL
